From: patent US20210284709A1

- measuredTarget: T1, HLA-A2/E6(29-38) tetramer (human; HPV 16)
- T1 construct: also called E6(29-38) peptide-MHC tetramer; E6 tet
- assayInfo: flow cytometry, tetramer + anti-CD8; transfected Jurkat-derived cells, CD8+ cells
measuredAttribute: % cells E6 tet+/CD8- quadrant (%)
State the answer as a number, implicitly in %.

Give me measured % cells E6 tet+/CD8- quadrant, please, for this binder: TCR 24 (codon-optimized, cysteine-modified) (TCR, V domains shown) V domain 1: AQKITQTQPGMFVQEKEAVTLDCTYDTSDQSYGLFWYKQPSSGEMIFLIYQGSYDEQNATEGRYSLNFQKARKSANLVISASQLGDSAMYFCAMREGRGDSWGKLQFGAGTQVVVTP V domain 2: DVKVTQSSRYLVKRTGEKVFLECVQDMDHENMFWYRQDPGLGLRLIYFSYDVKMKEKGDIPEGYSVSREKKERFSLILESASTNQTSMYLCASSPFGRGSYEQYFGPGTRLTVTE
0.13

Determine its reported % cells E6 tet+/CD8- quadrant: TCR 18 (codon-optimized, cysteine-modified) (TCR, V domains shown) V domain 1: KQEVTQIPAALSVPEGENLVLNCSFTDSAIYNLQWFRQDPGKGLTSLLLIQSSQREQTSGRLNASLDKSSGRSTLYIAASQPGDSATYLCAEGNAGGTSYGKLTFGQGTILTVHP V domain 2: DVKVTQSSRYLVKRTGEKVFLECVQDMDHENMFWYRQDPGLGLRLIYFSYDVKMKEKGDIPEGYSVSREKKERFSLILESASTNQTSMYLCASSFWGRSNSPLHFGNGTRLTVTE
0.045

// Input: TCR 21 (codon-optimized, cysteine-modified) (TCR, V domains shown) V domain 1: AQKITQTQPGMFVQEKEAVTLDCTYDTSDQSYGLFWYKQPSSGEMIFLIYQGSYDEQNATEGRYSLNFQKARKSANLVISASQLGDSAMYFCAMREGRVTGGGNKLTFGTGTQLKVEL V domain 2: NAGVTQTPKFQVLKTGQSMTLQCAQDMNHNSMYWYRQDPGMGLRLIYYSASEGTTDKGEVPNGYNVSRLNKREFSLRLESAAPSQTSVYFCASRPWGNQNTEAFFGQGTRLTVVE . Output its % cells E6 tet+/CD8- quadrant only.
0.22

Tell me measured % cells E6 tet+/CD8- quadrant for TCR 17 (codon-optimized, cysteine-modified) (TCR, V domains shown) V domain 1: AQKITQTQPGMFVQEKEAVTLDCTYDTSDPSYGLFWYKQPSSGEMIFLIYQGSYDQQNATEGRYSLNFQKARKSANLVISASQLGDSAMYFCAMREGRGDKIIFGKGTRLHILP V domain 2: DVKVTQSSRYLVKRTGEKVFLECVQDMDHENMFWYRQDPGLGLRLIYFSYDVKMKEKGDIPEGYSVSREKKERFSLILESASTNQTSMYLCASSLWGRSNQPQHFGDGTRLSILE please.
0.17

Specify reported % cells E6 tet+/CD8- quadrant for the binder shown: TCR 22 (codon-optimized, cysteine-modified) (TCR, V domains shown) V domain 1: GQNIDQPTEMTATEGAIVQINCTYQTSGFNGLFWYQQHAGEAPTFLSYNVLDGLEEKGRFSSFLSRSKGYSYLLLKELQMKDSASYLCAVRARMDSNYQLIWGAGTKLIIKP V domain 2: DAGVTQSPTHLIKTRGQHVTLRCSPISGHKSVSWYQQVLGQGPQFIFQYYEKEERGRGNFPDRFSARQFPNYSSELNVNALLLGDSALYLCASSRTENYGYTFGSGTRLTVVE
0.14

Please look at this binder and report its % cells E6 tet+/CD8- quadrant: TCR 27 (codon-optimized, cysteine-modified) (TCR, V domains shown) V domain 1: DAKTTQPNSMESNEEEPVHLPCNHSTISGTDYIHWYRQLPSQGPEYVIHGLTSNVNNRMASLAIAEDRKSSTLILHRATLRDAAVYYCILRVPPQSGGYQKVTFGTGTKLQVIP V domain 2: NAGVTQTPKFQVLKTGQSMTLQCAQDMNHNSMYWYRQDPGMGLRLIYYSASEGTTDKGEVPNGYNVSRLNKREFSLRLESAAPSQTSVYFCASSEFGSLNEKLFFGSGTQLSVLE
0.02

// Input: TCR 23 (codon-optimized, cysteine-modified) (TCR, V domains shown) V domain 1: AQKITQTQPGMFVQEKEAVTLDCTYDTSDQSYGLFWYKQPSSGEMIFLIYQGSYDEQNATEGRYSLNFQKARKSANLVISASQLGDSAMYFCAMSPPGGSARQLTFGSGTQLTVLP V domain 2: DVKVTQSSRYLVKRTGEKVFLECVQDMDHENMFWYRQDPGLGLRLIYFSYDVKMKEKGDIPEGYSVSREKKERFSLILESASTNQTSMYLCASSPWGQSNQPQHFGDGTRLSILE . Output its % cells E6 tet+/CD8- quadrant only.
0.18
